experiment-notes: Repeated oral dosing (5 mg/kg every 12 h, six doses) plasma trough concentrations in koalas
Assay type: in vivo
condition-info: female, koala (Phascolarctos cinereus), plasma, median (range), females, 72 h, 5 mg/kg oral every 12 h, read-out: Firocoxib trough plasma concentration
measure-name: concentration at 72 h (ng/mL)
Report the figure in ng/mL without appending any unit label.

Req: Hello, please tell me recorded concentration at 72 h for this one: CC1(C)OC(=O)C(OCC2CC2)=C1c1ccc(S(C)(=O)=O)cc1
Resp: 120

* * *

experiment-notes: Single oral dose (5 mg/kg) pharmacokinetics of firocoxib in koalas, plasma HPLC, non-compartmental analysis
condition-info: female, koala (Phascolarctos cinereus), plasma, po, 5 mg/kg, Firocoxib plasma concentration, K6 female; 4 h; single oral 5 mg/kg
measure-name: concentration at 4 h (ng/mL)
Report the figure in ng/mL without appending any unit label.

Req: Hello, please tell me recorded concentration at 4 h for this one: CC1(C)OC(=O)C(OCC2CC2)=C1c1ccc(S(C)(=O)=O)cc1 [firocoxib]
Resp: 28.9

* * *

experiment-notes: Single oral dose (5 mg/kg) pharmacokinetics of firocoxib in koalas, plasma HPLC, non-compartmental analysis
condition-info: female, koala, plasma, po, 5 mg/kg, Firocoxib plasma concentration, K6 female; 12 h; single oral 5 mg/kg
measure-name: concentration at 12 h (ng/mL)
Report the figure in ng/mL without appending any unit label.

Req: Hello, please tell me recorded concentration at 12 h for this one: CC1(C)OC(=O)C(OCC2CC2)=C1c1ccc(S(C)(=O)=O)cc1
Resp: 13.2

* * *

experiment-notes: Single oral dose (5 mg/kg) pharmacokinetics of firocoxib in koalas, plasma HPLC, non-compartmental analysis
condition-info: female, plasma, po, 5 mg/kg, t1/2 (elimination half-life), K4 female; single oral 5 mg/kg
measure-name: half-life

Req: Hello, please tell me recorded half-life for this one: CC1(C)OC(=O)C(OCC2CC2)=C1c1ccc(S(C)(=O)=O)cc1
Resp: 3.67 h

* * *

experiment-notes: Single oral dose (5 mg/kg) pharmacokinetics of firocoxib in koalas, plasma HPLC, non-compartmental analysis
condition-info: both, plasma, po, 5 mg/kg, ke, harmonic mean, n = 6 koalas; single oral 5 mg/kg
measure-name: k el (s⁻¹)
Report the figure in s⁻¹ without appending any unit label.

Req: Hello, please tell me recorded k el for this one: CC1(C)OC(=O)C(OCC2CC2)=C1c1ccc(S(C)(=O)=O)cc1 [firocoxib]
Resp: 2.78e-05

* * *

experiment-notes: Single oral dose (5 mg/kg) pharmacokinetics of firocoxib in koalas, plasma HPLC, non-compartmental analysis
condition-info: male, plasma, po, 5 mg/kg, Tmax, K1 male; single oral 5 mg/kg
measure-name: Tmax (h)
Report the figure in h without appending any unit label.

Req: Hello, please tell me recorded Tmax for this one: CC1(C)OC(=O)C(OCC2CC2)=C1c1ccc(S(C)(=O)=O)cc1
Resp: 8

* * *

experiment-notes: Single oral dose (5 mg/kg) pharmacokinetics of firocoxib in koalas, plasma HPLC, non-compartmental analysis
condition-info: male, koala (Phascolarctos cinereus), plasma, po, 5 mg/kg, Firocoxib plasma concentration, K3 male; 2 h; single oral 5 mg/kg
measure-name: concentration at 2 h

Req: Hello, please tell me recorded concentration at 2 h for this one: CC1(C)OC(=O)C(OCC2CC2)=C1c1ccc(S(C)(=O)=O)cc1
Resp: 105 ng/mL

* * *

experiment-notes: Single oral dose (5 mg/kg) pharmacokinetics of firocoxib in koalas, plasma HPLC, non-compartmental analysis
condition-info: male, plasma, po, 5 mg/kg, ke (elimination constant), K2 male; single oral 5 mg/kg; slope from 4, 8, 12 h
measure-name: k el (s⁻¹)
Report the figure in s⁻¹ without appending any unit label.

Req: Hello, please tell me recorded k el for this one: CC1(C)OC(=O)C(OCC2CC2)=C1c1ccc(S(C)(=O)=O)cc1
Resp: 5.83e-05

* * *

experiment-notes: Single oral dose (5 mg/kg) pharmacokinetics of firocoxib in koalas, plasma HPLC, non-compartmental analysis
condition-info: male, koala (Phascolarctos cinereus), plasma, po, 5 mg/kg, Firocoxib plasma concentration, K1 male; 2 h; single oral 5 mg/kg
measure-name: concentration at 2 h (ng/mL)
Report the figure in ng/mL without appending any unit label.

Req: Hello, please tell me recorded concentration at 2 h for this one: CC1(C)OC(=O)C(OCC2CC2)=C1c1ccc(S(C)(=O)=O)cc1
Resp: 22.7

* * *

experiment-notes: Single oral dose (5 mg/kg) pharmacokinetics of firocoxib in koalas, plasma HPLC, non-compartmental analysis
condition-info: female, koala (Phascolarctos cinereus), plasma, po, 5 mg/kg, Firocoxib plasma concentration, K6 female; 1 h; single oral 5 mg/kg
measure-name: concentration at 1 h (ng/mL)
Report the figure in ng/mL without appending any unit label.

Req: Hello, please tell me recorded concentration at 1 h for this one: CC1(C)OC(=O)C(OCC2CC2)=C1c1ccc(S(C)(=O)=O)cc1 [firocoxib]
Resp: 7.89

* * *

experiment-notes: Single oral dose (5 mg/kg) pharmacokinetics of firocoxib in koalas, plasma HPLC, non-compartmental analysis
condition-info: female, plasma, po, 5 mg/kg, Cmax, K5 female; single oral 5 mg/kg
measure-name: Cmax (ng/mL)
Report the figure in ng/mL without appending any unit label.

Req: Hello, please tell me recorded Cmax for this one: CC1(C)OC(=O)C(OCC2CC2)=C1c1ccc(S(C)(=O)=O)cc1
Resp: 61.9

* * *

experiment-notes: Single oral dose (5 mg/kg) pharmacokinetics of firocoxib in koalas, plasma HPLC, non-compartmental analysis
condition-info: female, koala (Phascolarctos cinereus), plasma, po, 5 mg/kg, Firocoxib plasma concentration, K5 female; 8 h; single oral 5 mg/kg
measure-name: concentration at 8 h (ng/mL)
Report the figure in ng/mL without appending any unit label.

Req: Hello, please tell me recorded concentration at 8 h for this one: CC1(C)OC(=O)C(OCC2CC2)=C1c1ccc(S(C)(=O)=O)cc1
Resp: 45.8

* * *

experiment-notes: Single oral dose (5 mg/kg) pharmacokinetics of firocoxib in koalas, plasma HPLC, non-compartmental analysis
condition-info: female, plasma, po, 5 mg/kg, MRT0-inf, K5 female; single oral 5 mg/kg
measure-name: MRT inf (h)
Report the figure in h without appending any unit label.

Req: Hello, please tell me recorded MRT inf for this one: CC1(C)OC(=O)C(OCC2CC2)=C1c1ccc(S(C)(=O)=O)cc1
Resp: 13.1

* * *

experiment-notes: Single oral dose (5 mg/kg) pharmacokinetics of firocoxib in koalas, plasma HPLC, non-compartmental analysis
condition-info: both, plasma, po, 5 mg/kg, t1/2, harmonic mean, n = 6 koalas; single oral 5 mg/kg
measure-name: half-life (h)
Report the figure in h without appending any unit label.

Req: Hello, please tell me recorded half-life for this one: CC1(C)OC(=O)C(OCC2CC2)=C1c1ccc(S(C)(=O)=O)cc1
Resp: 5.01

* * *

experiment-notes: Single oral dose (5 mg/kg) pharmacokinetics of firocoxib in koalas, plasma HPLC, non-compartmental analysis
condition-info: male, plasma, po, 5 mg/kg, t1/2 (elimination half-life), K3 male; single oral 5 mg/kg
measure-name: half-life (h)
Report the figure in h without appending any unit label.

Req: Hello, please tell me recorded half-life for this one: CC1(C)OC(=O)C(OCC2CC2)=C1c1ccc(S(C)(=O)=O)cc1 [firocoxib]
Resp: 3.19

* * *

experiment-notes: Single oral dose (5 mg/kg) pharmacokinetics of firocoxib in koalas, plasma HPLC, non-compartmental analysis
condition-info: female, koala, plasma, po, 5 mg/kg, Firocoxib plasma concentration, K4 female; 0.25 h; single oral 5 mg/kg
measure-name: concentration at 0.25 h (ng/mL)
Report the figure in ng/mL without appending any unit label.

Req: Hello, please tell me recorded concentration at 0.25 h for this one: CC1(C)OC(=O)C(OCC2CC2)=C1c1ccc(S(C)(=O)=O)cc1 [firocoxib]
Resp: 0.78

* * *

experiment-notes: Single oral dose (5 mg/kg) pharmacokinetics of firocoxib in koalas, plasma HPLC, non-compartmental analysis
condition-info: male, plasma, po, 5 mg/kg, MRT0-inf, harmonic mean, male koalas (n = 3); single oral 5 mg/kg
measure-name: MRT inf (h)
Report the figure in h without appending any unit label.

Req: Hello, please tell me recorded MRT inf for this one: CC1(C)OC(=O)C(OCC2CC2)=C1c1ccc(S(C)(=O)=O)cc1
Resp: 9.01

* * *

experiment-notes: Single oral dose (5 mg/kg) pharmacokinetics of firocoxib in koalas, plasma HPLC, non-compartmental analysis
condition-info: male, koala, plasma, po, 5 mg/kg, Firocoxib plasma concentration, K3 male; 0.5 h; single oral 5 mg/kg
measure-name: concentration at 0.5 h (ng/mL)
Report the figure in ng/mL without appending any unit label.

Req: Hello, please tell me recorded concentration at 0.5 h for this one: CC1(C)OC(=O)C(OCC2CC2)=C1c1ccc(S(C)(=O)=O)cc1
Resp: 52.5

* * *

experiment-notes: Single oral dose (5 mg/kg) pharmacokinetics of firocoxib in koalas, plasma HPLC, non-compartmental analysis;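 further: healthy adult koalas, three per sex, anaesthetised the day before dosing for cephalic vein catheterisation, with serial blood draws and firocoxib in plasma quantified by HPLC using fluorescence detection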
condition-info: female, plasma, po, 5 mg/kg, MRT0-inf, harmonic mean, female koalas (n = 3); single oral 5 mg/kg
measure-name: MRT inf

Req: Hello, please tell me recorded MRT inf for this one: CC1(C)OC(=O)C(OCC2CC2)=C1c1ccc(S(C)(=O)=O)cc1 [firocoxib]
Resp: 13.1 h
